Task for the reader: assign each of the following molecules its reported Ki.
Target: NS3 (Hepatitis C virus)
Sequence (A3EZJ3 whole entry): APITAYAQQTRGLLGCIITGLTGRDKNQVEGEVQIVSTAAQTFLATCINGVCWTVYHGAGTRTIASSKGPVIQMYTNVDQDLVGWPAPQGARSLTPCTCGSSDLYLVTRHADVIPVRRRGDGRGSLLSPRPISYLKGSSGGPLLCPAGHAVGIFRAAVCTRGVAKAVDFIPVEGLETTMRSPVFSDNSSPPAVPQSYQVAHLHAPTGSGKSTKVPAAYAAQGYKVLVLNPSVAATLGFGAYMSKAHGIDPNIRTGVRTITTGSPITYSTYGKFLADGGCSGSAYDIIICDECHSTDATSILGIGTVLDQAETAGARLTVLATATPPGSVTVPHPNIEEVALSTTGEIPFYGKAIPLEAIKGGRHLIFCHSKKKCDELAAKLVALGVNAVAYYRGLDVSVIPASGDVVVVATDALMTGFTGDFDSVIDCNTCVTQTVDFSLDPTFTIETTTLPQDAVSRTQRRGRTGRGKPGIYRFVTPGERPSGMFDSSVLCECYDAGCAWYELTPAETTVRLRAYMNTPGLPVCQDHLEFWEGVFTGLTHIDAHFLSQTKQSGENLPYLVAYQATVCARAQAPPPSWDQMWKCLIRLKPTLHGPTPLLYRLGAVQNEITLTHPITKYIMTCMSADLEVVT
Experiment: Binding affinity against Hepatitis C virus NS3 protease
Parameters: species or system Hepacivirus hominis
Only the number, expressed in µM, is required.

Prompt: Could you share which Ki value was measured for CCCN(NC(=O)[C@H]1CCCN1C(=O)[C@@H](NC(=O)[C@@H](NC(=O)[C@H](CC(=O)O)NC(=O)[C@H](CCC(=O)O)NC(=O)[C@@H](NC(=O)[C@H](CC(=O)O)NC(C)=O)[C@@H](C)O)C(C)C)C(C)C)C(=O)OC(Cl)C(Cl)(Cl)Cl (some centres undefined) ?
Response: 0.2

Prompt: Could you share which Ki value was measured for `CCCN(NC(=O)[C@H]1CCCN1C(=O)[C@@H](NC(=O)[C@@H](NC(=O)[C@H](CC(=O)O)NC(=O)[C@H](CCC(=O)O)NC(C)=O)C(C)C)C(C)C)C(=O)N[C@@H](CO)C(=O)N[C@@H](CCSC)C(=O)N[C@@H](CO)C(N)=O` ?
Response: 200
